What kon was measured for each of the following?
targetUnderTest: T1, recombinant human SOST (rhSOST) (human, UniProt Q9BQB4 24-213)
T1 construct: Treated as one molecule; also called recombinant human SOST protein; human sclerostin
T1 sequence: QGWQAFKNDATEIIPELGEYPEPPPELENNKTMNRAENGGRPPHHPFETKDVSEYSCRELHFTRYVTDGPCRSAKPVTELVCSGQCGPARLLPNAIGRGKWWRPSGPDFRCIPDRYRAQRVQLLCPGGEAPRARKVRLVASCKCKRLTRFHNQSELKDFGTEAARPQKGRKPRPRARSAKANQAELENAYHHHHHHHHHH
assayName: SPR Biacore T200, IgG captured via anti-human Fc, rhSOST analyte, 37 C
Number in M⁻¹ s⁻¹, nothing else.

Give a short answer stating reported kon for DM12 (antibody, V domains shown, also called wt/mL1) VH: EVQLLESGGGLVQPGGSLRLSCAASGHTFTDYWMQWVRQAPGKGLEWIGAIYPGDGDTRYNQKFKDRFTISRDNSKNTLYLQMNSLRAEDTAVYYCARSMDYWGQGTLVTVSS VL: DIVMTQSPDSLAVSLGERATINCRASKTVDSYGNSFMHWYQQKPGQPPKLLIHHSSNLESGVPDRFSGSGSGTDFTLTISSLQAEDVAVYYCLQTIEDPYTFGQGTKLEIK . 6.55e+06

Give a short answer stating reported kon for DM23 (antibody, V domains shown, also called mH3/wt) VH: EVQLLESGGGLVQPGGSLRLSCAASGFTFSDYWMQWVRQAPGKGLEWIGAIYPGDGDTRYNQKFKDRFTISRDNSKNTLYLQMNSLRAEDTAVYYCARSMDYWGQGTLVTVSS VL: DIVMTQSPDSLAVSLGERATINCRASKTVDSYGNSFMHWFQQKPGQPPKLLIHHSSNLESGVPDRFSGSGSGTDFTLTISSLQAEDVAVYYCLQTIEDPYTFGQGTKLEIK . 1.39e+07

Give a short answer stating reported kon for DM8 (antibody, V domains shown, also called mH11/mL17) VH: EVQLLESGGGLVQPGGSLRLSCAASGFTFSDYWMQWVRQAPGKGLEWVGAIYPGDGDTRYNQKFKDRFTISRDNSKNTLYLQMNSLRAEDTAVYYCARSMDYWGQGTLVTVSS VL: DIVMTQSPDSLAVSLGERATINCRASKTVDSYGNSFMHWYQQKPGQPPKLLIYHSSNLESGVPDRFSGSGSGTDFTLTISSLQAEDVAVYYCLQTIEFPYTFGQGTKLEIK . 2.39e+06

Give a short answer stating reported kon for DM16 (antibody, V domains shown, also called wt/mL5) VH: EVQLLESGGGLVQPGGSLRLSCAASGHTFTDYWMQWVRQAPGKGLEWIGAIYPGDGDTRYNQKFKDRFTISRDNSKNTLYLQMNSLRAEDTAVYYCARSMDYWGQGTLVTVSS VL: DIVMTQSPDSLAVSLGERATINCRASKTVDSYGNSFMHWFQQKPGQPPKLLIHHSSNLESGVPDRFSGSGSGTDFTLTISSLQAEDVAVYYCLQTIEDHYTFGQGTKLEIK . 3.94e+06

Give a short answer stating reported kon for DM13 (antibody, V domains shown, also called wt/mL2) VH: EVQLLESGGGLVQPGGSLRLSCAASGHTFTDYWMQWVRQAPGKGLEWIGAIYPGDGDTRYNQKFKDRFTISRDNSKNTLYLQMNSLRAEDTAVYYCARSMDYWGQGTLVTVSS VL: DIVMTQSPDSLAVSLGERATINCRASKTVDSYGNSFMHWFQQKPGQPPKLLIYHSSNLESGVPDRFSGSGSGTDFTLTISSLQAEDVAVYYCLQTIEDPYTFGQGTKLEIK . 1.72e+07
